# measurement target: Melanocortin receptor 4 (Homo sapiens, UniProt P32245)
# Sequence (P32245 whole entry): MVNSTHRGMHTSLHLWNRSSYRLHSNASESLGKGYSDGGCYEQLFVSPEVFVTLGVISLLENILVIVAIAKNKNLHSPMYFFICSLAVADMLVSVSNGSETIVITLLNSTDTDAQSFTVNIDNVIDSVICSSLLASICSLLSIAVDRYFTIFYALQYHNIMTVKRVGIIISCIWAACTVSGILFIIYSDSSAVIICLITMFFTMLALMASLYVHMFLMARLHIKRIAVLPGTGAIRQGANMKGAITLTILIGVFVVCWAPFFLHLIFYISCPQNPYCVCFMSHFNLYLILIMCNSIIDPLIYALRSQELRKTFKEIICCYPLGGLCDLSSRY
# experimental protocol: Inhibitory concentration against Melanocortin 4 receptor
value type: pIC50
# pIC50 = -log10(concentration in molar units)

Bench note: what pIC50 did CC(NC1CCCNC1)c1ccccc1N1CCN(C(=O)[C@@H](Cc2ccc(Cl)cc2)NC(=O)c2cnc3ccccc3c2)CC1 (stereo partly specified) show?
6.52

* * *

Observed pKi values for Melanocortin receptor 4 (Homo sapiens) are listed in what follows.
On this scale, pKi is minus log10 of a concentration expressed in M (mol/L).

N[C@H]1CCCC[C@@H]1NCc1ccccc1N1CCN(C(=O)[C@@H](Cc2ccc(Cl)cc2)NC(=O)[C@H]2Cc3ccccc3CN2)CC1 | 7.05
CC(NCCN1CCOCC1)c1ccccc1N1CCN(C(=O)[C@@H](Cc2ccc(Cl)cc2)NC(=O)[C@H]2Cc3ccccc3CN2)CC1 (some centres undefined) | 7.06
O=C(N[C@H](Cc1ccc(Cl)cc1)C(=O)N1CCN(c2ccccc2CNCCN2CCOCC2)CC1)[C@H]1Cc2ccccc2CN1 | 6.92

Value wanted: pKi (Melanocortin receptor 4 (Homo sapiens)) of entry CC(C)COCCCNCc1ccccc1N1CCN(C(=O)[C@@H](Cc2ccc(Cl)cc2)NC(=O)[C@H]2Cc3ccccc3CN2)CC1
6.96

Where do these numbers come from? They come from ChEMBL document CHEMBL1144310.
